The following compounds are shown together with reported Ratio IC50 values.
# TEST METHOD NOTES: Selectivity ratio of IC50 for human DHFR to Candida albicans DHFR
PROPERTY NAME: Ratio IC50

[[record]]
compound = "CCc1nc(N)nc(N)c1C#CC(C)c1cc(OC)cc(-c2ccncc2)c1 (centres undefined)"
test_value = 22

[[record]]
compound = "CCc1nc(N)nc(N)c1C#CC(C)c1cc(OC)cc(-c2ccc3c(c2)OCCO3)c1 (centres undefined)"
test_value = 11

[[record]]
compound = "CCc1nc(N)nc(N)c1C#CCc1cc(OC)cc(-c2cccc3cnccc23)c1"
test_value = 0.84

[[record]]
compound = "COc1cc(-c2ccncc2)cc(C(C)C#Cc2c(C)nc(N)nc2N)c1 (centres undefined)"
test_value = 25

[[record]]
compound = "CCc1nc(N)nc(N)c1C#CC(C)c1cc(OC)cc(-c2cccc3cnccc23)c1 (centres undefined)"
test_value = 2.6

[[record]]
compound = "CCc1nc(N)nc(N)c1C#CCc1cc(OC)cc(-c2ccc3c(c2)OCCO3)c1"
test_value = 1.8

[[record]]
compound = "COc1cc(C(C)C#Cc2c(C)nc(N)nc2N)cc(N2CCOCC2)c1 (centres undefined)"
test_value = 19

[[record]]
compound = "COc1cc(C(C)(C)C#Cc2c(C)nc(N)nc2N)cc(OC)c1OC"
test_value = 9

[[record]]
compound = "CCc1nc(N)nc(N)c1C#CC(C)c1cc(OC)cc(N2CCOCC2)c1 (centres undefined)"
test_value = 11

